Target: T1, human α-CGRP 1-37 (WT) (human, C-terminal amide; N-terminal biotin when captured on the SA chip; 125I-labelled in the radioligand assay)
T1 construct: also called α-human
T1 peptide: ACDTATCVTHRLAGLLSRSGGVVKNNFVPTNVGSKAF
Assay: Biacore, 37°C, Fab over CGRP on SA chip
Each record here notes measured koff.
Write the value in s⁻¹ as a bare number.

binder: G1 variant M73 Fab (Fab, V domains shown, Fab; constant domains as m1) VH: EVQLVESGGGLVQPGGSLRLSCAASGFTFSNYWISWVRQAPGKGLEWVAEIRSKSDNYATHYADAVKGRFTISRDNAKNSLYLQMNSLRAEDTAVYYCTVYFDYGLAIQNYWGQGTLVTVSS VL: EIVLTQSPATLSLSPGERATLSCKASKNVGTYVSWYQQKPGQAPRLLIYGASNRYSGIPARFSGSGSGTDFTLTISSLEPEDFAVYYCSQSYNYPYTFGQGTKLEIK
measurement_unit: s⁻¹
koff: 0.000255
--
binder: G1 variant M1 Fab (Fab, V domains shown, Fab; constant domains as m1) VH: EVQLVESGGGLVQPGGSLRLSCAASGFTFSNYWISWVRQAPGKGLEWVAEIRSESDASATHYAEAVKGRFTISRDNAKNSLYLQMNSLRAEDTAVYYCLLYFDYGLAIQNYWGQGTLVTVSS VL: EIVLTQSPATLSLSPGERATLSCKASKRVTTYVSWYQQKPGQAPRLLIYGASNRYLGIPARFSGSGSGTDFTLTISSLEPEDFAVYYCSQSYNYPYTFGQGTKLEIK
measurement_unit: s⁻¹
koff: 0.000173
--
binder: G1 variant M82 Fab (Fab, V domains shown, Fab; constant domains as m1) VH: EVQLVESGGGLVQPGGSLRLSCAASGFTFSNYWISWVRQAPGKGLEWVAEIRSESDNSATHYAEAVKGRFTISRDNAKNSLYLQMNSLRAEDTAVYYCTVYFDYGLAIQNYWGQGTLVTVSS VL: EIVLTQSPATLSLSPGERATLSCKASKNVVTYVSWYQQKPGQAPRLLIYGHSNRYTGIPARFSGSGSGTDFTLTISSLEPEDFAVYYCSQSYNYPYTFGQGTKLEIK
measurement_unit: s⁻¹
koff: 0.000877

Query: Report koff for G1 variant M27 Fab (Fab, V domains shown, Fab; constant domains as m1) VH: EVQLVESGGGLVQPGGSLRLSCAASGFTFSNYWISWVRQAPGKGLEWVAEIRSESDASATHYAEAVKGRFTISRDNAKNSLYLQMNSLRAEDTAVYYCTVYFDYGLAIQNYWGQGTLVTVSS VL: EIVLTQSPATLSLSPGERATLSCKASKNVATYVSWYQQKPGQAPRLLIYGASNRYLGIPARFSGSGSGTDFTLTISSLEPEDFAVYYCSQSYNYPYTFGQGTKLEIK
Result: 0.000357

Query: Please indicate koff recorded for G1 variant M59 Fab (Fab, V domains shown, Fab; constant domains as m1) VH: EVQLVESGGGLVQPGGSLRLSCAASGFTFSNYWISWVRQAPGKGLEWVAEIRSKSDNNATFYAEAVKGRFTISRDNAKNSLYLQMNSLRAEDTAVYYCTVYFDYGLAIQNYWGQGTLVTVSS VL: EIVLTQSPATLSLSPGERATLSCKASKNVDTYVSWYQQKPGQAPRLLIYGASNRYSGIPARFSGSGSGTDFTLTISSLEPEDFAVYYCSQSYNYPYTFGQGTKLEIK
Result: 0.000524

Measured values drawn from patent US20190071490A1 for this set.
